# Method summary: Stability of the compound in liver microsomes (human)
# Assay type: in vitro ADME
# Measurement parameters: human, liver microsomes; 1 μM compound, 0.5 mg protein/mL, 37° C.; read-out: Human liver microsomes T½
Endpoint label: half-life at 1 μM (min)
Provide the reading as a plain figure in min.

Reported half-life at 1 μM, compound COc1c([C@H]2[C@H](C(=O)Nc3ccnc(C(N)=O)c3)O[C@@](C)(C(F)(F)F)[C@H]2C)ccc(F)c1F [VX-548, reference compound] : ____
132

* * *

# Target entity: Nav1.8 sodium channel (Homo sapiens (Human), UniProt Q9Y5Y9)
# Sequence (Q9Y5Y9 whole entry): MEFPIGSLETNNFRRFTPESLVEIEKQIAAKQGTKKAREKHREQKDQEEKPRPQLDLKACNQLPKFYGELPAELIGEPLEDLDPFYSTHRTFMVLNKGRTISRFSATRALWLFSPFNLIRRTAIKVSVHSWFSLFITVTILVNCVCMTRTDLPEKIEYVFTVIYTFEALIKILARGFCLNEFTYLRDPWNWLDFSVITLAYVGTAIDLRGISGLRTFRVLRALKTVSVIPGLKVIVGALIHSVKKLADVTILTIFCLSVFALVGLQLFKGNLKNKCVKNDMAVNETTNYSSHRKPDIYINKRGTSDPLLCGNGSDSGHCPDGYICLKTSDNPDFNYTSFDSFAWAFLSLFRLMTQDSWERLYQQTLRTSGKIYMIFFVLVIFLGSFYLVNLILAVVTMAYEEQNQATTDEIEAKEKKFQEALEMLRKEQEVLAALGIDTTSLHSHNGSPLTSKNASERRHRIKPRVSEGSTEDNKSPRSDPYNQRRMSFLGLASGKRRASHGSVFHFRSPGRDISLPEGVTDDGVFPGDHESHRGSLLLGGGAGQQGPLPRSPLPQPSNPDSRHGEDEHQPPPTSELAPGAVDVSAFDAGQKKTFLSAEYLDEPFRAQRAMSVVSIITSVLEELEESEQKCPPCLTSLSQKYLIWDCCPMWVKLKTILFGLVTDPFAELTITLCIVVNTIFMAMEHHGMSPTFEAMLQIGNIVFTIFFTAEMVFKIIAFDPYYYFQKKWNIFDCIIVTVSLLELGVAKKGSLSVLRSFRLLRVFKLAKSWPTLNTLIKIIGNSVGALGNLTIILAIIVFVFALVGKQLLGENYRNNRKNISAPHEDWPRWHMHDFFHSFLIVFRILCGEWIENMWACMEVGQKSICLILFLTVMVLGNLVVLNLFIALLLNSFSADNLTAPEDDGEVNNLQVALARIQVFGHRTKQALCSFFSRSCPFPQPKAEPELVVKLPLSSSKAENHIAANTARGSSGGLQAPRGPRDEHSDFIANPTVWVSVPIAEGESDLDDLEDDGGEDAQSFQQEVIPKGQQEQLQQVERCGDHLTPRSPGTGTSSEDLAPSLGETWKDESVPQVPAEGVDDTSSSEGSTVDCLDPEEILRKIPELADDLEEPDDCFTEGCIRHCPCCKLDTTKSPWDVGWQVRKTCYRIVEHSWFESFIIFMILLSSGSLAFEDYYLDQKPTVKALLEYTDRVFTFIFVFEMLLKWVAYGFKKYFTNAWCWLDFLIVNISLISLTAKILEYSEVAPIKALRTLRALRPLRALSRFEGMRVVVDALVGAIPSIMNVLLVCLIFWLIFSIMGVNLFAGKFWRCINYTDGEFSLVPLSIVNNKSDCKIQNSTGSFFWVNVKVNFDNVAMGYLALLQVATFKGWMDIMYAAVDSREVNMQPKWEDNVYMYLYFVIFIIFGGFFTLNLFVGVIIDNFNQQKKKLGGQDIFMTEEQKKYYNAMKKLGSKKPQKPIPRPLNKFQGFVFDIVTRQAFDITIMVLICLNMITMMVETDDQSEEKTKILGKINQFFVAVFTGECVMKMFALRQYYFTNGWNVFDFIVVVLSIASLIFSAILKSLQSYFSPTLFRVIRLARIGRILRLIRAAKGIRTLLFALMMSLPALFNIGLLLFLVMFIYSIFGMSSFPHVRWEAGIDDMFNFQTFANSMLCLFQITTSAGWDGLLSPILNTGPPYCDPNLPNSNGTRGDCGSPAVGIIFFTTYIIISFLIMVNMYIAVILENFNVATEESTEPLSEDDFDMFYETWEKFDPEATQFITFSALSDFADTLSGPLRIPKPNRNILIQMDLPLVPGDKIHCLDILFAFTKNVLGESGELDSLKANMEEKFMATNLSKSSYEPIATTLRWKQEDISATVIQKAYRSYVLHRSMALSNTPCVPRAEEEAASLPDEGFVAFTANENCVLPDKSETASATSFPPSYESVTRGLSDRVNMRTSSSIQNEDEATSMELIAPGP
# Method summary: NaV1.8 blocking activity, manual patch clamp
# Assay type: cell-based
# Measurement parameters: 10 nM, CHO cell line stably expressing Nav1.8
Endpoint label: Blocking rate(%) @10 nM
The answer is to be given in %; state only the numeric part.

Could you share which Blocking rate(%) @10 nM value was measured for `[2H]C([2H])([2H])Oc1c([C@H]2[C@H](C(=O)Nc3ccnc(C(=N)NOC)c3)N[C@@](C)(C(F)(F)F)[C@H]2C)ccc(F)c1F` ?
79.44

# query: Blocking rate(%) @10 nM of entry `COc1c([C@H]2[C@H](C(=O)Nc3ccc([C@H](O)CO)nc3)N[C@@](C)(C(F)(F)F)[C@H]2C)ccc(F)c1F`
79.03

So what does the record say about Blocking rate(%) @10 nM for `COc1c([C@@H]2[C@@H](C(=O)Nc3ccnc(C(N)=O)c3)N(C)[C@](C)(C(F)(F)F)[C@@H]2C)ccc(F)c1F` ?
6.05

For the compound shown here, `COc1c([C@@H]2[C@@H](C(=O)Nc3ccnc(C(N)=O)c3)N[C@](C)(C(F)(F)F)[C@@H]2C)ccc(F)c1F` , give the reported Blocking rate(%) @10 nM.
9.30

Param item = `COc1c([C@H]2[C@H](C(=O)Nc3ccnc(S(C)(=O)=O)c3)N[C@@](C)(C(F)(F)F)[C@H]2C)ccc(F)c1F` ; retrieve measured Blocking rate(%) @10 nM.
88.65

Which Blocking rate(%) @10 nM value is on record for `COc1c([C@H]2[C@H](C(=O)Nc3cccc(S(N)(=O)=O)c3)N[C@@](C)(C(F)(F)F)[C@H]2C)ccc(F)c1F` ?
100.00

Given `[2H]C([2H])([2H])Oc1c([C@H]2[C@H](C(=O)Nc3ccnc(C(=N)NO)c3)N[C@@](C)(C(F)(F)F)[C@H]2C)ccc(F)c1F` , state its recorded Blocking rate(%) @10 nM.
25.19

Fill in: Blocking rate(%) @10 nM of C[C@H]1[C@@H](c2ccc(F)c(F)c2OC(F)F)[C@H](C(=O)Nc2ccnc(C(N)=O)c2)N[C@@]1(C)C(F)(F)F [Compound 19] is ___
55.68

Give its Blocking rate(%) @10 nM value. Item: `COc1c([C@H]2[C@H](C(=O)Nc3ccnc(S(N)(=O)=O)c3)N[C@@](C)(C(F)(F)F)[C@H]2C)ccc(F)c1F`
84.91

Fill in the blank: the reported Blocking rate(%) @10 nM of `COc1c([C@H]2[C@H](C(=O)Nc3ccnc(C(N)=O)c3)N[C@@](C)(C(F)(F)F)[C@H]2C)ccc(F)c1F` is ____.
97.98

Consider the compound `COc1c([C@H]2[C@H](C(=O)Nc3ccc(F)c(C(=N)NO)c3)N[C@@](C)(C(F)(F)F)[C@H]2C)ccc(F)c1F.Cl` and give its measured Blocking rate(%) @10 nM.
99.13

Report Blocking rate(%) @10 nM for `COc1c([C@H]2[C@H](C(=O)Nc3ccc[n+]([O-])c3)N[C@@](C)(C(F)(F)F)[C@H]2C)ccc(F)c1F` please.
91.89

Name the reported Blocking rate(%) @10 nM value associated with the compound `[2H]C([2H])([2H])Oc1c([C@H]2[C@H](C(=O)Nc3ccc(F)c(C(=N)NO)c3)N[C@@](C)(C(F)(F)F)[C@H]2C)ccc(F)c1F`
99.51

* * *

# Method summary: Pharmacokinetic experiment, rat test, gavage administration
# Type: in vivo, SD rats
# Measurement parameters: Sprague-Dawley, rat, plasma, po, female SD rats, 10 mg/kg, read-out: Area under the curve AUC0-t
Endpoint label: AUC(0-t) (ng·h/mL)
Give just the number in ng·h/mL; leave the unit off.

What does the data say about its AUC(0-t)? Entry: COc1c([C@H]2[C@H](C(=O)Nc3ccnc(C(N)=O)c3)O[C@@](C)(C(F)(F)F)[C@H]2C)ccc(F)c1F [VX-548, reference compound]
10900

* * *

# Method summary: Pharmacokinetic experiment, rat test, gavage administration
# Format: in vivo, SD rats
# Measurement parameters: Sprague-Dawley, rat, plasma, po, male SD rats, 10 mg/kg, read-out: blood concentration Cmax
Endpoint label: Cmax
The answer consists of two parts: a number and, after it, its unit.

Reported Cmax for COc1c([C@H]2[C@H](C(=O)Nc3ccnc(C(N)=O)c3)O[C@@](C)(C(F)(F)F)[C@H]2C)ccc(F)c1F [VX-548, reference compound] : what is it?
385 ng/mL

* * *

# Target entity: UniProtKB Q9Y5Y9
# Method summary: NaV1.8 blocking activity, manual patch clamp
# Measurement parameters: CHO cell line stably expressing Nav1.8
Endpoint label: IC50 (nM)
Note: unit nM is implicit; provide only the numeric part.

Reported IC50 for `COc1c([C@H]2[C@H](C(=O)Nc3ccnc(C(N)=O)c3)N[C@@](C)(C(F)(F)F)[C@H]2C)ccc(F)c1F` : what is it?
1.3

* * *

# Target entity: CYP1A2 (Homo sapiens (Human))
# Sequence (P05177 whole entry): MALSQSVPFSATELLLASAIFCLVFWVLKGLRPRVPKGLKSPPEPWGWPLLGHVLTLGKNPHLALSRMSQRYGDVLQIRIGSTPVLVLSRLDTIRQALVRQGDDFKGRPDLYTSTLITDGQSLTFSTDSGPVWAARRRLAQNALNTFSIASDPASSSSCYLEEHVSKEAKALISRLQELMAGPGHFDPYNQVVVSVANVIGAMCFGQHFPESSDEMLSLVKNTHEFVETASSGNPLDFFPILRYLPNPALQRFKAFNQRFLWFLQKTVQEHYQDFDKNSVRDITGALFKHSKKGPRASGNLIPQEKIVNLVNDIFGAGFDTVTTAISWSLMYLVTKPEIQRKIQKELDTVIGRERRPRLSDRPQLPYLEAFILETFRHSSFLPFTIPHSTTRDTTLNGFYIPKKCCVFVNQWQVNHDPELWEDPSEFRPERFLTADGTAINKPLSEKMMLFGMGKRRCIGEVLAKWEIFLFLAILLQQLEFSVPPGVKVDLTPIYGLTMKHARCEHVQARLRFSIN
# Method summary: Human liver microsomal CYP inhibition test, CYP1A2
# Assay type: in vitro ADME
# Measurement parameters: microsomes
# Method: 3.1 Buffer solutions: (1) potassium phosphate 100 mM; (2) magnesium chloride, 33 mM; 3.2.3 Reservoir for compounds to be tested: Dissolving the compounds to be tested in DMSO to form a 10 mM DMSO solution. 3.4.1 Preparation of human liver microsomal working solution (1.27×) (final concentration: 0.2 mg/mL) […] 3.5.8 Centrifuging the sample at 4000 rpm for 20 minutes to precipitate the protein. […] The samples were analyzed by LC/MS/MS; […]
Would you mind telling me the reported IC50 of each entry?

Field request: IC50 | item: COc1c([C@H]2[C@H](C(=O)Nc3ccc(F)c(C(=N)NO)c3)N[C@@](C)(C(F)(F)F)[C@H]2C)ccc(F)c1F.Cl [Compound 10, hydrochloride]
> 50 µM

What value of IC50 has been reported for the following compound? COc1c([C@H]2[C@H](C(=O)Nc3cccc(S(N)(=O)=O)c3)N[C@@](C)(C(F)(F)F)[C@H]2C)ccc(F)c1F [Compound 8]
> 50 µM

* * *

# Target entity: CYP2C19 (Homo sapiens (Human), UniProt P33261)
# Sequence (P33261 whole entry): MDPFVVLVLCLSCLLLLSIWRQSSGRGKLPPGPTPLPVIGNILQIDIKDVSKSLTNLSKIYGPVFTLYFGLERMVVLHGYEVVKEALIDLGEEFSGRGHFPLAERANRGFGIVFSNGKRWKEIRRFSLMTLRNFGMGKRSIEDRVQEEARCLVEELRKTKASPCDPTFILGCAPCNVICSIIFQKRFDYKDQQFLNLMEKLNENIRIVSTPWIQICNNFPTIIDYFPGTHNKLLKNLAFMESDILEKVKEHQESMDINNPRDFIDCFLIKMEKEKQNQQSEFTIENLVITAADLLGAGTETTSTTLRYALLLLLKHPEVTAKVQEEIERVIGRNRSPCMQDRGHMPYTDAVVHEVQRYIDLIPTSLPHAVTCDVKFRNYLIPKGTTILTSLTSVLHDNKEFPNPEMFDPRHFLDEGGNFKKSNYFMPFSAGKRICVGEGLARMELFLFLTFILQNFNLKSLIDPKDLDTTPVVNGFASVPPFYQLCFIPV
# Method summary: Human liver microsomal CYP inhibition test, CYP2C19
# Assay type: in vitro ADME
# Measurement parameters: human liver microsomes 0.2 mg/mL; substrate S-mephenytoin
Endpoint label: IC50 (µM)
Please reply with the bare figure in µM and do not write the unit itself.

Which IC50 value is on record for COc1c([C@H]2[C@H](C(=O)Nc3cccc(S(N)(=O)=O)c3)N[C@@](C)(C(F)(F)F)[C@H]2C)ccc(F)c1F [Compound 8] ?
29

Please report the recorded IC50 for COc1c([C@H]2[C@H](C(=O)Nc3ccc(F)c(C(=N)NO)c3)N[C@@](C)(C(F)(F)F)[C@H]2C)ccc(F)c1F.Cl [Compound 10, hydrochloride] .
3.05

Any idea what IC50 was measured for COc1c([C@H]2[C@H](C(=O)Nc3ccnc(C(N)=O)c3)O[C@@](C)(C(F)(F)F)[C@H]2C)ccc(F)c1F [VX-548, reference compound] ?
3.74

Using the record for COc1c([C@H]2[C@H](C(=O)Nc3ccc[n+]([O-])c3)N[C@@](C)(C(F)(F)F)[C@H]2C)ccc(F)c1F [Compound 7] , report its IC50.
2.13

* * *

# Target entity: Nav1.8 sodium channel (Homo sapiens (Human))
# Method summary: NaV1.8 blocking activity, manual patch clamp
# Format: cell-based
# Measurement parameters: 3 nM, CHO cell line stably expressing Nav1.8
Endpoint label: Blocking rate (%) @3 nM
Number in %, nothing else.

Could you tell me which Blocking rate (%) @3 nM is on file for `[2H]C([2H])([2H])Oc1c([C@H]2[C@H](C(=O)Nc3ccc(F)c(C(=N)NO)c3)N[C@@](C)(C(F)(F)F)[C@H]2C)ccc(F)c1F` ?
91.40

Recorded Blocking rate (%) @3 nM of `COc1c([C@H]2[C@H](C(=O)Nc3ccc([C@H](O)CO)nc3)N[C@@](C)(C(F)(F)F)[C@H]2C)ccc(F)c1F` , please.
72.73

Tell me the measured Blocking rate (%) @3 nM of `COc1c([C@H]2[C@H](C(=O)Nc3ccnc(S(C)(=O)=O)c3)N[C@@](C)(C(F)(F)F)[C@H]2C)ccc(F)c1F` , please.
77.43

What value of Blocking rate (%) @3 nM has been reported for the following molecule? `COc1c([C@H]2[C@H](C(=O)Nc3ccnc(S(N)(=O)=O)c3)N[C@@](C)(C(F)(F)F)[C@H]2C)ccc(F)c1F`
58.06

Which Blocking rate (%) @3 nM is listed for `COc1c([C@H]2[C@H](C(=O)Nc3ccc([C@@H](O)CO)nc3)N[C@@](C)(C(F)(F)F)[C@H]2C)ccc(F)c1F` ?
20.06

Would you mind telling me what Blocking rate (%) @3 nM value was observed for `[2H]C([2H])([2H])Oc1c([C@H]2[C@H](C(=O)Nc3ccnc(C(=N)NOC)c3)N[C@@](C)(C(F)(F)F)[C@H]2C)ccc(F)c1F` ?
35.55

Dear colleague, I am looking for the recorded Blocking rate (%) @3 nM of the following molecule: C[C@H]1[C@@H](c2ccc(F)c(F)c2OC(F)F)[C@H](C(=O)Nc2ccnc(C(N)=O)c2)N[C@@]1(C)C(F)(F)F [Compound 19]
26.22

Requested field: Blocking rate (%) @3 nM. Item: `COc1c([C@H]2[C@H](C(=O)Nc3ccc(F)c(C(=N)NO)c3)N[C@@](C)(C(F)(F)F)[C@H]2C)ccc(F)c1F.Cl`
95.18

For `COc1c([C@H]2[C@H](C(=O)Nc3cccc(S(N)(=O)=O)c3)N[C@@](C)(C(F)(F)F)[C@H]2C)ccc(F)c1F` , what is its reported Blocking rate (%) @3 nM?
93.13

# query: Blocking rate (%) @3 nM of entry `COc1c([C@H]2[C@H](C(=O)Nc3ccc[n+]([O-])c3)N[C@@](C)(C(F)(F)F)[C@H]2C)ccc(F)c1F`
67.34

Could you share which Blocking rate (%) @3 nM value was measured for `[2H]C([2H])([2H])Oc1c([C@H]2[C@H](C(=O)Nc3ccnc(C(=N)NO)c3)N[C@@](C)(C(F)(F)F)[C@H]2C)ccc(F)c1F` ?
6.68

Which Blocking rate (%) @3 nM reading was recorded for the molecule `[2H]C([2H])([2H])Oc1c([C@H]2[C@H](C(=O)Nc3cc[n+]([O-])c(C(N)=O)c3)N[C@@](C)(C(F)(F)F)[C@H]2C)ccc(F)c1F` ?
40.29

Item C[C@H]1[C@@H](c2ccc(F)c(F)c2OC(F)F)[C@H](C(=O)Nc2ccnc(C(N)=O)c2)N[C@@]1(C)C(F)(F)F [Compound 13] has what recorded Blocking rate (%) @3 nM?
75.71
